Test: protein stability index of a GFP-peptide fusion (GPS, HEK-293T) (PSI 1-6); higher = more stable;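 note: 24-mer peptide tiles fused after GFP, lentivirally expressed, FACS-sorted into six equal bins by GFP/DsRed ratio, decoded by Illumina sequencing, PSI is the read-weighted mean bin number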
Conditions: treatment: MLN4924 1 uM, 8 h; c terminus: a fixed tail appended
Consider the following sequences; for each one, report its protein stability index.
Just the number, please, no unit after it.

Noted for EQELKTVTYSLLKRLKERSLDTLL [SMAD6] : its protein stability index reads 2.22

Quick note, protein stability index for QGPISTKELADFIRERATIEETYS [FCHO1] landed at 3.26

Short answer for SVTEYRLDGHTISDLSRSSRGELI [MYBL2] : protein stability index was 3.67

Notebook: SGYGFRPSMVSGGYVANSSNCISG [KRT71] , protein stability index read as 2.73

The sequence listed as EKPLGRVGVFLDFESGSVSFLNVT [TRIM43] shows protein stability index equal to 2.17

Note to self: protein stability index recorded for IDQWKNKIWPEIKVPRPDALDNES [RETREG3] was 4.3

LNGSSQPTTRNYPELNNNQYNRSS [CDC14A] yielded protein stability index of 4.34

For this sequence ( TVVPLDDATQEYKEKLQKCLEPLE [TRIM39] ), measured protein stability index is 5.22

VWSCEGCKAFFKRSIQGHNDYICP [ESR2] yielded protein stability index of 2.15

# sequence ENQSPSSSNYFSPRESTDFSSSSQ [ZBTB22] ; its protein stability index = 4.96

// sample VMRMLGQTPTKEELDAIIEEVDED [TNNC2] , its protein stability index was 5.34

Just so you know, measured protein stability index for TLQSITWQMIEQIQFIKLFGMAKI [HNF4A] came out at 2.87

The sequence listed as PYHVDSLLQLSDACRFQEDQEMAR [TCF25] shows protein stability index equal to 4.04

Just so you know, measured protein stability index for LQFTILLSLIGVRVDVDTYLTSQL [NFE2L1] came out at 3.13

For reference, reported protein stability index for SMNRVKNISDADVHNAMDNYECNL [FEM1B] stands at 4.3

Notebook: GELPNHPKPAGGAIPTKKSLPSPS [FBF1] , protein stability index read as 5.25

The reported protein stability index of the sequence HNAHQLAAWCLHHICTNYNSVCSK [RHOBTB1] was 2.79

Short answer for GHEGSVSSCHFARDSSFLISGGFD [WDR88] : protein stability index was 3.1

Lab note: LGAMMLLESPIDPQPLSFKEPPLL [APMAP] gave protein stability index of 2.5

Noted for GGIKTVDMRDPTYRPLKQELQGLD [SPSB1] : its protein stability index reads 4.33

Noted for ILAVSFAPLVQPSKNDNGKPDSVG [PCMTD1] : its protein stability index reads 3.14

Given item AEFILLGLLEAPGLQPVVFVLFLF [OR3A1] , the value recorded as its protein stability index is 2.95

Sample TGEKLLELNGHTQKITAIITFPSL [WDR41] ; protein stability index observed: 2.3

Consider LDGALRTFLKAFPLMGETQERERV [PSD2] . Its measured protein stability index is 2.88

The sequence identified as SKILSSKSKAYTVVGTPCYISPEL [NEK8] registered its protein stability index at 2.88

Quick note, protein stability index for FAAEARYPIYVIPEPPPVSFQPYH [TENT5D] landed at 2.26

The value of protein stability index measured for the sequence PQPHRNRAGLDLPTIDTGYDSQPQ [TRAF3IP2] turned out to be 4.76
